Values compiled from the supplement of paper PMC9732359.

# Test protocol: protein stability index of a GFP-peptide fusion (yeast GPS) (PSI 1-4); higher = more stable; sorted into four equal gates, so the index is relative within each strain
# Measurement setup: san1∆
Outcome: 1 (yes) for protein stability index of at least 2; 0 (no) for anything lower.

>  <Biopolymer sequence>
SANTNNTCTISTSKFES [SWP82]

>  <Label class>
1 (yes)

$$$$
>  <Biopolymer sequence>
PYMPYYYYYHPMNAPTP [DSN1]

>  <Label class>
1 (yes)

$$$$
>  <Biopolymer sequence>
TANANKPAFSFGATTND [YJL041W/NSP1]

>  <Label class>
1 (yes)

$$$$

Lookup: Decide: is the reported value of protein stability index for YISNLLYGVTICYNKKT [REC8] equal to or greater than 2?
Found: 0 (no)

Lookup: Another: TIRYPDPNIKVNDTVKI [RPS4A]
Found: 1 (yes)

Lookup: Another: STQPSFAWSKPSTGSNL [YGR119C/NUP57]
Found: 1 (yes)

Lookup: Another: ELFKGYLADDIDADSLE [RPL5]
Found: 1 (yes)

Lookup: Another: ITQIVEKDFCTSCLQNN [SRB8]
Found: 1 (yes)

---

# Test protocol: protein stability index of a GFP-peptide fusion (yeast GPS) (PSI 1-4); higher = more stable; sorted into four equal gates, so the index is relative within each strain
# Measurement setup: doa10∆
Items are presented alongside their recorded protein stability index.
Lab note: write the figure by itself, no unit.

Recorded protein stability index, per entry:
>  <Biopolymer sequence>
VANSTKAAFIRVNGSEF [RPT3]

>  <protein stability index>
1.92

$$$$
>  <Biopolymer sequence>
VFLLTTRAGGLGINLVT [ISW2]

>  <protein stability index>
1.69

$$$$
>  <Biopolymer sequence>
TTESSDLKEGLQDLSRY [GRR1]

>  <protein stability index>
3.24

$$$$
>  <Biopolymer sequence>
CCTKFFTMMTSEPLTLK [PCI8]

>  <protein stability index>
2.03

$$$$
>  <Biopolymer sequence>
LQLETPAEVGRAIRSEK [BRR2]

>  <protein stability index>
2.08

$$$$

Lookup: Entry under review: NSEKYYDEDPYGFEDES [RPB2] . Reported protein stability index?
Found: 3.47

Lookup: Another: HHAIEEAESLLQFHVAT [RPO21]
Found: 2.67

Lookup: Another: KFKRHHSDRYHRVAENW [RPL32]
Found: 3

Lookup: Another: TLPGDDELDQEILNLST [RPT5]
Found: 3.32

Lookup: Another: IALMGQDNKKIYVHVRR [ESC2]
Found: 2.33

---

# Test protocol: protein stability index of a GFP-peptide fusion (yeast GPS) (PSI 1-4); higher = more stable; sorted into four equal gates, so the index is relative within each strain
# Measurement setup: pdr5∆
Outcome: yes for protein stability index of at least 3; no for anything lower.

>  <Biopolymer sequence>
EVFQLRIFVKEILEKCA [GAL11]

>  <Label class>
no

$$$$
>  <Biopolymer sequence>
VDSNLPDDEKFTDENTI [RPC40]

>  <Label class>
yes

$$$$
>  <Biopolymer sequence>
TLAITTVTNSKFRSSIL [RPN2]

>  <Label class>
no

$$$$
>  <Biopolymer sequence>
LGKCSRITDASLFQLSK [GRR1]

>  <Label class>
yes

$$$$
>  <Biopolymer sequence>
HATVVPPEEFSNTIDEL [SRB7]

>  <Label class>
yes

$$$$

Lookup: Decide: is the reported value of protein stability index for DSTLILEQLAQHTTESD [RPB2] equal to or greater than 3?
Found: no

Lookup: Another: LYDNFVSKFYDKINQLS [RPN9]
Found: no

Lookup: Another: ELTKTKSSLYSAQDLLD [YIL149C/MLP2]
Found: no

Lookup: Another: EIMYTGVSISVSFNSKQ [SMC3]
Found: no

Lookup: Another: LKENAGSLTFLDNKGSG [YIL149C/MLP2]
Found: yes
